Data credit: paper PMC10525797

Assay: in vitro
Details: human
Experimental Endpoint: IC50 (µg/mL)
Report the value in µg/mL with no unit label.

# lookup: IC50 of CC/C(=C(\c1ccccc1)c1ccc(OCCN(C)C)cc1)c1ccccc1 [Tamoxifen, reference compound]
6.96
